The values you see were collected from the nanobody polyreactivity screen of Harvey et al. (2022).

Test: yeast display, Sf9 membrane polyspecificity reagent, FACS + sequencing; frameworks hold sequencing errors
property_measured: polyreactivity (PSR sort gate)

QVQLVESGGGLVQAGGSLRLSCAASGRTFWNYAMGWYRQAPGKEREMVAVIRFSDGSTYYADSVKGRFTISRDNAKNTVYLQMNSLKPEDTAVYYCAAKGPRRWGSGFDYWGQGTQVTVSS = low polyreactivity
QVQLVESGGGLVQAGGSLRLSCAASGRIFYRYTMGWYRQAPGKERELVAAITRSGSSTRYADSVKGRFTISRDYAKNTVYLQMNSLKPEDTAVYYCATRVTSRTSGFDYWGQGTQVTVSS = high polyreactivity
QVQLVESGGGLVQAGGSLRLSCAASGFIFPWYAMGWYRQAPGKERELVAIISWDTGSTYYADSVKGRFTISRDNAKNTVYLQMNSLKPEDTAVYYCAAAYYYYVSGWFDYWGQGTQVTVSS = low polyreactivity
QVQLVESGGGLVQAGGSLRLSCAASVRIFRGNDMGWYRKAPGKERELVARITGNDGDTYYADSVKGRFTISRDNAKNTVYLQMNSLKPEDTAVYYCATDTSSYRRRYYYWGQGTQVTVSS = low polyreactivity
QVQLVESGGGLVLAGGSLRLSCAASGRIYRIYNKGWYRQAPGKERELVAAISKSGGGTYYADSVKGRFTISRDNAKNTVYLQMNSLKPEDTAVYYCTTANWDRKSRVFRQSTVGYGYWGQGTQVTVSS = high polyreactivity

Note down polyreactivity (PSR sort gate) recorded for QVQLVESGVGLVQARGSLRLSCAASGITFNYYAMGWYRQAPGKESELVATINRSGGTTYYADSVKGRFTISRDKAKNTDYLQMNSLKQEDTAVYDCNARYTSLGRYHSGYEYWGQGTQVTVSS
high polyreactivity

Note down polyreactivity (PSR sort gate) recorded for QVQLVESGGGLVQAGGSLRLSCAASGGTFEFYTMGGYRQAPGKERELVAVINASGDSTYYADSVKGRFTISRDNAKNTVYLQMNSLKPEYTAVYYCAADHRGEYDYWGQGTQVNVSS
low polyreactivity

Note down polyreactivity (PSR sort gate) recorded for QVQLVESGGGLVQAGGSLRLSCAASGFTFSTYAMGWDRQAPGKERELVAAISRSGGSTYYADSVKGRFTISRDNAKNTVYLQMNSLKPEDTAVYYCAVRPFRSAGGSVTRGAYYYWGQGTQVTVSS
high polyreactivity

Note down polyreactivity (PSR sort gate) recorded for QVQLVESGGGLVQAGGSLRLSCAASGFTLDWYAKGWYRQAPGKERELVAAISSSGRTNYADSVKGRFTISRDNAKNTVYLQMNSLKPEDTAVYYCNRDYPYIWHKGARYWHENDYWGQGTQVTVTS
low polyreactivity

Note down polyreactivity (PSR sort gate) recorded for QVQLVESGGRLVQAGGSLRLSCAASGSTFGWYAMAWYRPAPGKERELVAAIRSNGGSTYYADSVKGRFTISRDNAKNTVYLQMNSLKPEDTAVYYCAARGSPSKHHWYDYWGQGTQVTVSS
low polyreactivity

Note down polyreactivity (PSR sort gate) recorded for QVQLVESGGGLVQAGGSLRLSCAASGRTFRYNAKGSYIQAPGKERELVAAINWNGGSTYYADSVKGSFTISRDNAKNTVYLQMNSLKQEDTAVYYCNADFYHRYDWGQGTQVSVSS
high polyreactivity
